# credit: PubChem BioAssay (NCI)

System: A549/ATCC NSCLC
METHOD: NCI-60 one-dose screen, 48 h (100 = growth as untreated, 0 = no growth, -100 = all killed)
CONDITION SET: 10 µM
This is part of a sample that, as a whole, favours compounds with a hit. Of some 83,000 tested, about 20% had one in any assay.
Cut-off 60% on growth: below means true (1), at or above means false (0).

Please review the following examples before continuing.
| COMPOUND | TARGET OR SYSTEM | CLASS LABEL |
| --- | --- | --- |
| CS(=O)(=O)c1nccc(-c2c(-c3cccc(OCc4ccccc4)c3)nc3sccn23)n1 | A549/ATCC NSCLC | false (0) |
| N=C1S/C(=C/c2ccc(-c3ccc4c(c3)C(=O)NC4=O)o2)C(=O)N1c1ccc(Br)cc1 | A549/ATCC NSCLC | true (1) |
| C=C1CCC2(C#N)[C@H]3[C@H](CC[C@@H]2C)[C@@H](C)C[C@@H](CC(C)(C)NC(=O)CN2CCC2=O)[C@H]13 (some centres undefined) | A549/ATCC NSCLC | false (0) |
| COc1ccc2c(c1)C(=O)/C(=C/c1cccc(OCC(=O)c3ccc([N+](=O)[O-])cc3)c1)CO2 | A549/ATCC NSCLC | true (1) |
| CN(C)CCCOc1cccc(NC2=C(Cl)C(=O)C(Nc3cccc(OCCCN(C)C)c3)=C(Cl)C2=O)c1 | A549/ATCC NSCLC | true (1) |

Lab note: confirm whether the reported growth for this compound is below 60%, equality not counting. compound: COc1ccc(-c2nn(-c3cccc(Cl)c3)cc2-c2cc(-c3cccs3)[nH]c(=S)n2)cc1
true (1)

Lab note: confirm whether the reported growth for this compound is below 60%, equality not counting. compound: O=C1CSC(=S)N1/N=C/c1ccc(Cl)s1
false (0)

Lab note: confirm whether the reported growth for this compound is below 60%, equality not counting. compound: Cc1ccc(/C=C2/C(=O)N(C)c3ccc(S(=O)(=O)Nc4ccc(C(C)(C)C)cc4)cc32)s1
false (0)

Lab note: confirm whether the reported growth for this compound is below 60%, equality not counting. compound: CC(C)C1=C(O)C2=C(C(=O)C1=O)[C@@]1(C)CCCC(C)(C)[C@@H]1CC2
false (0)
